Please go through the items and note down their pIC50.
system: THP-1 cells; assay: TNFα generation assay; format: cell-based, human; conditions: Homo sapiens, THP-1, THP-1 cells; Table 22; read-out: IC50 in TNFα generation assay
pIC50: −log10 of the molar value.

For orientation, consider the following solved cases.
compound: NC(=O)c1cc(F)c(N[C@@H]2CCCC[C@@H]2N)nc1Nc1cncc2c1ccn2CCN1CCCC1
target.or.test.system: THP-1 cells
pIC50: 6.89 to 7.19

compound: CC[C@@H](Nc1nc(Nc2ccc3c(cnn3C)c2)c(C(N)=O)cc1F)[C@H](C)N
target.or.test.system: THP-1 cells
pIC50: > 7.19

compound: CCC[C@@H](Nc1nc(Nc2ccnc(OC)c2)c(C(N)=O)cc1F)[C@H](C)N
target.or.test.system: THP-1 cells
pIC50: > 7.19

compound: CC[C@@H](Nc1nc(Nc2cncc(-n3cccn3)c2)c(C(N)=O)cc1F)[C@H](C)N
target.or.test.system: THP-1 cells
pIC50: 6.89 to 7.19

compound: NC(=O)c1cc(F)c(NC2CCCCC2N)nc1Nc1ccc2cnn(CC(F)F)c2c1 (stereo not drawn)
target.or.test.system: THP-1 cells
pIC50: 6.89 to 7.19

compound: CC(C)C[C@H](CN)Nc1nc(Nc2cccc3c2cnn3C)c(C(N)=O)cc1F
target.or.test.system: THP-1 cells
pIC50: 6.70 to 6.89

compound: Cc1nc2ccc(Nc3nc(N[C@@H]4CCCC[C@@H]4N)c(F)cc3C(N)=O)cc2o1 (relative stereo)
target.or.test.system: THP-1 cells
pIC50: 6.70 to 6.89

compound: NC(=O)c1cc(F)c(NC2CCCCC2N)nc1Nc1cncc(NC(=O)c2ccco2)c1 (stereo not drawn)
target.or.test.system: THP-1 cells
pIC50: 6.70 to 6.89

compound: CCC[C@@H](Nc1nc(Nc2ccc3c(OC)nccc3c2)c(C(N)=O)cc1F)[C@H](C)N
target.or.test.system: THP-1 cells
pIC50: > 7.19

compound: Cn1ncc2cc(Nc3nc(NC[C@@H](N)c4ccccc4)c(F)cc3C(N)=O)ccc21
target.or.test.system: THP-1 cells
pIC50: 6.70 to 6.89

Provide the reported pIC50 of each entry below, same order.
1. NC(=O)c1cc(F)c(N[C@@H]2CCCC[C@@H]2N)nc1Nc1cnc(N2CCOCC2)c(Cl)c1
2. COCCn1ncc2cc(Nc3nc(N[C@H](CC4CC4)[C@H](C)N)c(F)cc3C(N)=O)ccc21
3. CC[C@@H](Nc1nc(Nc2cnc3ccc(OC)cc3c2)c(C(N)=O)cc1F)[C@H](C)N
4. CC[C@@H](Nc1nc(Nc2ccc3c(c2)c(C(C)C)nn3C)c(C(N)=O)cc1F)[C@H](C)N

Response:
6.89 to 7.19
6.89 to 7.19
> 7.19
6.89 to 7.19
